molecular target: 5-hydroxytryptamine receptor 3A (Homo sapiens); type: functional; also: assay procedure not described here
Sequence (P46098 whole entry): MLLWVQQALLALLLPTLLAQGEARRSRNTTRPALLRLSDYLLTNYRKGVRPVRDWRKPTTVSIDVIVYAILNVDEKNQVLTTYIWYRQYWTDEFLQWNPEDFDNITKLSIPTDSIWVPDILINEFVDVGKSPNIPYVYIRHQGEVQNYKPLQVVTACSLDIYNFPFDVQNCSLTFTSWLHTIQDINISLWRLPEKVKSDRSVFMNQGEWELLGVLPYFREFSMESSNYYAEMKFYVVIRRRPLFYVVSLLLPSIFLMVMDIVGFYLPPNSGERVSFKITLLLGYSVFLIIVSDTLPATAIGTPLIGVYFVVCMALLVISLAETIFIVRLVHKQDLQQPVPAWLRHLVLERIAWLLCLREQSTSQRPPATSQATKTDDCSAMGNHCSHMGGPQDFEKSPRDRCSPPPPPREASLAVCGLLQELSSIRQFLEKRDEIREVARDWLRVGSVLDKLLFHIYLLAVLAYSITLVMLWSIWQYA

{"COMPOUND": "CN1CCN(CC/C=C2/c3ccccc3Sc3ccc(S(=O)(=O)N(C)C)cc32)CC1", "AC50": "1.6 µM"}
{"COMPOUND": "O=C(O[C@H]1C[C@H]2CC[C@@H](C1)[N+]21CCCC1)C(O)(c1ccccc1)c1ccccc1", "AC50": "> 30 µM"}
{"COMPOUND": "CCCc1nc(C(C)(C)O)c(C(=O)OCc2oc(=O)oc2C)n1Cc1ccc(-c2ccccc2-c2nnn[nH]2)cc1", "AC50": "> 10 µM"}
{"COMPOUND": "Cc1ccc(-c2cc(C(F)(F)F)nn2-c2ccc(S(N)(=O)=O)cc2)cc1", "AC50": "> 30 µM"}
{"COMPOUND": "CCCSc1ccc2nc(NC(=O)OC)[nH]c2c1", "AC50": "> 30 µM"}
{"COMPOUND": "CN(C)CCC(c1ccc(Cl)cc1)c1ccccn1 (stereo unspecified)", "AC50": "> 10 µM"}
{"COMPOUND": "CCN(CC)C(=O)N[C@H]1C[C@@H]2c3cccc4[nH]cc(c34)C[C@H]2N(C)C1 [TERGURIDE]", "AC50": "> 30 µM"}
{"COMPOUND": "NCC(CC(=O)O)c1ccc(Cl)cc1 (stereo unspecified)", "AC50": "> 30 µM"}
{"COMPOUND": "Cc1cn([C@H]2C[C@H](N=[N+]=[N-])[C@@H](CO)O2)c(=O)[nH]c1=O", "AC50": "> 30 µM"}
{"COMPOUND": "Cc1c(OCC(F)(F)F)ccnc1C[S+]([O-])c1nc2ccccc2[nH]1 (stereo unspecified)", "AC50": "2.3 µM"}
{"COMPOUND": "Nc1nc(/C(=C/CC(=O)O)C(=O)N[C@@H]2C(=O)N3C(C(=O)O)=CCS[C@H]23)cs1", "AC50": "> 30 µM"}
{"COMPOUND": "C[C@@H](O)[C@H]1C(=O)N2C(C(=O)O)=C(S[C@@H]3CN[C@H](C(=O)N(C)C)C3)[C@H](C)[C@H]12", "AC50": "> 300 µM"}
{"COMPOUND": "CCCN1C[C@H](CSC)C[C@@H]2c3cccc4[nH]cc(c34)C[C@H]21 [PERGOLIDE]", "AC50": "> 30 µM"}
{"COMPOUND": "O=C(O)C1=C(CSc2nnnn2CS(=O)(=O)O)CS[C@@H]2[C@H](NC(=O)[C@H](O)c3ccccc3)C(=O)N12", "AC50": "> 30 µM"}
{"COMPOUND": "CC(=O)NCCCS(=O)(=O)O [ACAMPROSATE]", "AC50": "> 30 µM"}
{"COMPOUND": "C=CCC1(C(C)CC)C(=O)NC(=O)NC1=O (stereo unspecified)", "AC50": "> 30 µM"}
{"COMPOUND": "CCCCN1C[C@H](O)[C@@H](O)[C@H](O)[C@H]1CO", "AC50": "> 30 µM"}
{"COMPOUND": "CC(=O)O[C@H]1C[C@@H]2CC[C@@H]3[C@H](CC[C@@]4(C)[C@H]3C[C@H]([N+]3(C)CCCCC3)[C@@H]4OC(C)=O)[C@@]2(C)C[C@@H]1N1CCCCC1", "AC50": "> 30 µM"}
{"COMPOUND": "CCOC(=O)[C@H](CCc1ccccc1)N[C@@H](C)C(=O)N1[C@H](C(=O)O)C[C@@H]2CCC[C@@H]21", "AC50": "> 30 µM"}
{"COMPOUND": "CC(C)(C)C(=O)Oc1ccc(S(=O)(=O)Nc2ccccc2C(=O)NCC(=O)O)cc1", "AC50": "> 30 µM"}
{"COMPOUND": "CC(C)Cn1cnc2c(N)nc3ccccc3c21", "AC50": "> 30 µM"}
{"COMPOUND": "C1CCC(C(CC2CCCCN2)C2CCCCC2)CC1 (stereo unspecified)", "AC50": "> 30 µM"}
{"COMPOUND": "CN(C)CCC=C1c2ccccc2C(C)(C)c2ccccc21", "AC50": "4.4 µM"}
{"COMPOUND": "Nc1ccn([C@H]2CC[C@@H](CO)O2)c(=O)n1", "AC50": "> 30 µM"}
{"COMPOUND": "CC(Oc1c(Cl)cccc1Cl)C1=NCCN1 (stereo unspecified)", "AC50": "> 30 µM"}
{"COMPOUND": "CCOc1ccccc1OCC1CNCCO1 (stereo unspecified)", "AC50": "> 10 µM"}
{"COMPOUND": "CC(C)=CCC/C(C)=C/C=C/C(C)=C/C=C/C(C)=C/C=C/C=C(C)/C=C/C=C(C)/C=C/C=C(\\C)CCC=C(C)C", "AC50": "> 30 µM"}
{"COMPOUND": "NC(=O)OCC(COC(N)=O)c1ccccc1 [FELBAMATE]", "AC50": "> 30 µM"}
{"COMPOUND": "CC(C)C(=O)c1c(C(C)C)nn2ccccc12", "AC50": "> 30 µM"}
{"COMPOUND": "O=C1Nc2ccc(Cl)cc2[C@@](C#CC2CC2)(C(F)(F)F)O1", "AC50": "> 30 µM"}
{"COMPOUND": "C[C@H]1COc2c(C3(N)CC3)c(F)cc3c(=O)c(C(=O)O)cn1c23", "AC50": "> 30 µM"}
{"COMPOUND": "CC(C[N+](C)(C)C)OC(N)=O (stereo unspecified)", "AC50": "> 30 µM"}
{"COMPOUND": "C=CCC1(CC(C)C)C(=O)NC(=O)NC1=O", "AC50": "> 30 µM"}
{"COMPOUND": "COc1ccc(CCNCC(O)COc2cccc(C)c2)cc1OC (stereo unspecified)", "AC50": "> 30 µM"}
{"COMPOUND": "C[C@]12CCC(=O)C=C1CC[C@@H]1[C@@H]2[C@@H](O)C[C@@]2(C)[C@H]1CC[C@]2(O)C(=O)CO [HYDROCORTISONE]", "AC50": "> 30 µM"}
{"COMPOUND": "CC(C)(C)NCC(O)COc1cccc2c1CCC(=O)N2 (stereo unspecified)", "AC50": "> 30 µM"}
